Tested on: nitric oxide production by macrophages (murine macrophage cell line RAW 264.7)
protocol notes: Nitric oxide production by macrophages
Assay type: cell-based
assay endpoint: IC50
State the result as a value with its unit after it.

Record C/C(=N\N=C(N)N)c1cc(NC(=O)CCCCCCCCC(=O)Nc2cc(/C(C)=N/N=C(N)N)cc(/C(C)=N/N=C(N)N)c2)cc(/C(C)=N/N=C(N)N)c1 [CNI-1493] . Reported IC50: 249 nM

----------
Tested on: IL-8 production by THP-1 cells
protocol notes: IL-8 production by macrophages
Assay type: cell-based, human
condition: THP-1 cells stimulated with opsonized zymosan, 24 hours; read-out: IC50 IL-8 production
Procedure: The human macrophage cell line, THP-1 was plated in a 12 well plate such that each well contains 1×10^6 cells in 2 ml of media containing 10% FCS. […] After a 24-hour stimulation, supernatants were collected to quantify IL-8 production. IL-8 concentrations in the supernatants were determined by ELISA using recombinant human IL-8 to obtain a standard curve. […] The dilution of Capture Antibody used was lot-specific and was determined empirically. […]
Counter-ions that a name gives are not always drawn.
assay endpoint: IC50 (nM)
Quick reminder: number only, in nM, skip the unit.

Please review the entries below; each comes with its answer.
compound | IC50, nM
COc1cccc2c1C(=O)c1c(O)c3c(c(O)c1C2=O)C[C@@](O)(C(=O)CO)C[C@@H]3O[C@H]1C[C@H](N)[C@@H](O)[C@H](C)O1 [epirubicin hydrochloride] | 654
C=CCNC1=C2C[C@@H](C)C[C@H](OC)[C@H](O)[C@@H](C)/C=C(\C)[C@H](OC(N)=O)[C@@H](OC)/C=C\C=C(/C)C(=O)NC(=CC1=O)C2=O | 56

Here is another compound to look at.
Value (IC50, IL-8 production by THP-1 cells) for record COc1cccc2c1C(=O)c1c(O)c3c(c(O)c1C2=O)C[C@@](O)(C(C)=O)C[C@@H]3O[C@H]1C[C@H](N)[C@H](O)[C@H](C)O1 = 421
